test system: RAF1; conditions: concentration: 1 μM, replicates: in singlicate; n = 1;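 note: KINOMEscan kinase panel screen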
# reported %Inh; entries follow
// return numeric value only (unit: %, not printed)

> print(dat)
                                   compound  recorded.measurement
1  CC(C)(C)OC(=O)NC1CCCN(c2cc(-c3ccc4c(N)n[nH]c4c3)nc(N)n2)C1 (stereo not drawn)                     7
2  Cc1ccc(O)cc1Nc1cc(C(F)(F)F)nc2ccc(-c3ccncc3)cc12                     0

-- ask Look up %Inh for this compound: COc1cc2ncnc(Nc3ccc(OCc4ccccc4Br)c(Cl)c3)c2cc1OC.Cl
-- reply 21

-- ask Look up %Inh for this compound: N#Cc1ccc(Oc2ccc(Nc3ncnc4cc[nH]c34)cc2Cl)cc1
-- reply 0

-- ask Look up %Inh for this compound: Nc1nc(-c2ccc3c(N)n[nH]c3c2)cc(N2CCCCC2)n1
-- reply 7

-- ask Look up %Inh for this compound: Fc1ccc(-c2ncn(CCCNCc3ccccc3)c2-c2ccncc2)cc1
-- reply 0

-- ask Look up %Inh for this compound: CNc1nccc(-c2c(-c3ccc(F)cc3)ncn2CCCN2CCOCC2)n1
-- reply 0

-- ask Look up %Inh for this compound: C[C@@H]1CCN(C(=O)CO)C[C@@H]1N(C)c1ncnc2[nH]ccc12
-- reply 0

-- ask Look up %Inh for this compound: Cn1ccc2ncnc(Nc3ccc(Oc4cccc(Cl)c4)c(Cl)c3)c21
-- reply 0

These entries and their values trace back to paper PMC5540273.
